koff values for the binders below.
Target: T1, cynoNectin4-mFc (cyno, UniProt A0A2K5WES1 32-349)
T1 construct: Immobilized on the SPR chip; also called cyanoNectin4; not shown: mFc (mouse Fc)
T1 sequence: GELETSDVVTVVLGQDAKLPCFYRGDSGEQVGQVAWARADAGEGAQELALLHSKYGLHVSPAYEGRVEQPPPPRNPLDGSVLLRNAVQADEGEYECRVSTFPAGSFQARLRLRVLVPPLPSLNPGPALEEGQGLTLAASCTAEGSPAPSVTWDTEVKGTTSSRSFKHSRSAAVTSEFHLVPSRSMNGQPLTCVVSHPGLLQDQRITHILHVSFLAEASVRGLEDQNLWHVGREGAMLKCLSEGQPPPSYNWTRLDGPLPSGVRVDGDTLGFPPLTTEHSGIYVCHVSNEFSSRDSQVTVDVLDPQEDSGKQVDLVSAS
Experiment: SPR, cynoNectin4-mFc immobilized, pH 7.4
Reply with just the number (in s⁻¹).

// below: answered binders
Binder	Reported
BAP-143-00-06 (antibody, V domains shown, Used as a conjugate with a linker payload (CAB ADC)) VH: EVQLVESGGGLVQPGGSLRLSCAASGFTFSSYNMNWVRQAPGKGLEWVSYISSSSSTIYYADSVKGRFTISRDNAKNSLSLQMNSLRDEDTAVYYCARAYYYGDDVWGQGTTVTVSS VL: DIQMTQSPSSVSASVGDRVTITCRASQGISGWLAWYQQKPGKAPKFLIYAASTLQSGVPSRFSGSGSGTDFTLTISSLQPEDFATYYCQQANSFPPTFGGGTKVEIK	0.000335
BAP-143-00-02 (antibody, V domains shown, Used as a conjugate with a linker payload (CAB ADC)) VH: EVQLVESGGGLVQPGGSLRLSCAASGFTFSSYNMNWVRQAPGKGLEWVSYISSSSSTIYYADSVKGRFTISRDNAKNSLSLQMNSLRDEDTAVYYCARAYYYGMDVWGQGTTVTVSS VL: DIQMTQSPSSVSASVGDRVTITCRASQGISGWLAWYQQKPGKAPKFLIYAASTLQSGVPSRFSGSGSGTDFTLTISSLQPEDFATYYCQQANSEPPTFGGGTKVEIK	0.00195

Task: // lookup koff for BAP-143-00-01 (antibody, V domains shown, Used as a conjugate with a linker payload (CAB ADC)) VH: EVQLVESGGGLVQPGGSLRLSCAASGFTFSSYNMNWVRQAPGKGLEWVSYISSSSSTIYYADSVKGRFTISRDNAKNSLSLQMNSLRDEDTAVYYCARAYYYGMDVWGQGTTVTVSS VL: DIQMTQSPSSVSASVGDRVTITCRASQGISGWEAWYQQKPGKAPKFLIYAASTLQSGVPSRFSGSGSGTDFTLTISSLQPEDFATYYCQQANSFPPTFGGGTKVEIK
Output: 0.00162

Task: // lookup koff for BAP-143-00-03 (antibody, V domains shown, Used as a conjugate with a linker payload (CAB ADC)) VH: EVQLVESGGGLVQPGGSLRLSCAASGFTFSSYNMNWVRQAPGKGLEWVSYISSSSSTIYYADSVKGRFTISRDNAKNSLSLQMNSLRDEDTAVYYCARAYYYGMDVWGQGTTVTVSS VL: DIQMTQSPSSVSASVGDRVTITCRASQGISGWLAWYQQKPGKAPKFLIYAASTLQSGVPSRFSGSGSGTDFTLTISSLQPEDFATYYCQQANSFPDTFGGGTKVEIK
Output: 0.000826
